Value source: ChEMBL document CHEMBL3885861

organism: Rattus norvegicus; experiment: Open TG-GATES - Regimen: Daily Repeat; format: toxicity, organism-based, Sprague-Dawley; parameters: regimen Daily Repeat, gender Male, age 6 weeks; conditions: in vivo, po, 0 mg/kg, 72 h, tissue Plasma, route gavage, dose level Control, time 3 day
experimental readout: GLC (mg/dL)

INSERT INTO assay_data (compound, test_value) VALUES
  ('Cc1nnc2n1-c1ccc(Cl)cc1C(c1ccccc1Cl)=NC2', 172.2),
  ('CCOc1ccc(NC(C)=O)cc1', 176.6),
  ('Nc1c2c(nc3ccccc13)CCCC2', 200.2),
  ('O=C(OC[C@H]1O[C@@H](OC(=O)c2cc(O)c(O)c(OC(=O)c3cc(O)c(O)c(O)c3)c2)[C@H](OC(=O)c2cc(O)c(O)c(OC(=O)c3cc(O)c(O)c(O)c3)c2)[C@@H](OC(=O)c2cc(O)c(O)c(OC(=O)c3cc(O)c(O)c(O)c3)c2)[C@@H]1OC(=O)c1cc(O)c(O)c(OC(=O)c2cc(O)c(O)c(O)c2)c1)c1cc(O)c(O)c(OC(=O)c2cc(O)c(O)c(O)c2)c1', 202),
  ('CNC(=C[N+](=O)[O-])NCCSCc1ccc(CN(C)C)o1', 198.8),
  ('CC(C)NNC(=O)c1ccncc1', 188.8),
  ('CN/C(=N/CCSCc1nc[nH]c1C)NC#N', 198.2),
  ('CN1C(=O)CCS(=O)(=O)C1c1ccc(Cl)cc1 (stereo not drawn)', 193.6),
  ('Brc1ccccc1', 187),
  ('COC(=O)C1=C(C)NC(C)=C(C(=O)OC)C1c1ccccc1[N+](=O)[O-]', 179.2),
  ('CN(C)CCC(c1ccc(Cl)cc1)c1ccccn1 (stereo not drawn)', 182.4),
  ('CCCc1cc(=O)[nH]c(=S)[nH]1', 192.8),
  ('NC1=NC(=O)C(c2ccccc2)O1 (stereo not drawn)', 184);

###

species on record: Rattus norvegicus; assay: Open TG-GATES - Regimen: Daily Repeat; format: toxicity, organism-based, Sprague-Dawley; parameters: regimen Daily Repeat, gender Male, age 6 weeks; details: in vivo, po, 100 mg/kg, […], tissue Plasma, route gavage, dose level Low, time 7 day
experimental readout: TC (mg/dL)

INSERT INTO measurements (molecule_smiles, test_value) VALUES
  ('CNC(=C[N+](=O)[O-])NCCSCc1ccc(CN(C)C)o1', 73.2),
  ('CN/C(=N/CCSCc1nc[nH]c1C)NC#N', 78.8),
  ('COC(=O)C1=C(C)NC(C)=C(C(=O)OC)C1c1ccccc1[N+](=O)[O-]', 77.4),
  ('O=C(OC[C@H]1O[C@@H](OC(=O)c2cc(O)c(O)c(OC(=O)c3cc(O)c(O)c(O)c3)c2)[C@H](OC(=O)c2cc(O)c(O)c(OC(=O)c3cc(O)c(O)c(O)c3)c2)[C@@H](OC(=O)c2cc(O)c(O)c(OC(=O)c3cc(O)c(O)c(O)c3)c2)[C@@H]1OC(=O)c1cc(O)c(O)c(OC(=O)c2cc(O)c(O)c(O)c2)c1)c1cc(O)c(O)c(OC(=O)c2cc(O)c(O)c(O)c2)c1', 84.2),
  ('Cc1nnc2n1-c1ccc(Cl)cc1C(c1ccccc1Cl)=NC2', 78.6);
